These entries and their values trace back to PubChem BioAssay (NCI).

assay: NCI Yeast Anticancer Drug Screen. Data for the bub3 strain (AID 167); conditions: S. cerevisiae bub3 mutant strain, at 50.0 µM (retest, dose inferred, filed as 5.0), active compounds read high
This is part of a sample that, as a whole, favours compounds with a hit. Of some 79,000 tested, about 15% had one in any assay.
Fulfilled means recorded growth inhibition is 30% or above; Not fulfilled means it is below 30%.

Worked cases, answers included:
INSERT INTO results (mol, cat) VALUES
  ('O/N=C(/CN1CCN(c2ccccc2)CC1)c1ccccc1', 'Not fulfilled'),
  ('CCOC(=O)C(=NNc1ccccc1)C(=O)OCC', 'Not fulfilled'),
  ('CC(=O)NNc1nc(C)c(C(=O)NNC(=O)C(=O)Nc2ccc(Cl)cc2Cl)s1', 'Fulfilled'),
  ('CCN(CC)c1c(C(=O)/C=C/c2ccc(OC)cc2)c(-c2ccccc2)nn(C)c1=O', 'Not fulfilled'),
  ('C[n+]1c(/C=C/c2ccccc2Cl)sc2ccccc21', 'Fulfilled'),
  ('CC1=NN(c2nc(N)nc(NS(=O)(=O)c3cc(C)c(Cl)cc3S)n2)C(C)(C)C1', 'Not fulfilled'),
  ('O=C(Nc1ccc(/C=C/c2ccc(NC(=O)c3cc(S(=O)(=O)O)c4cccnc4c3O)cc2S(=O)(=O)O)c(S(=O)(=O)O)c1)c1cc(S(=O)(=O)O)c2cccnc2c1O', 'Fulfilled');

Here's the next entry for you.
Could you please find out whether `COC(=O)/C=N/O` has growth inhibition that meets 30% or exceeds it? Not fulfilled

---

assay: NCI Yeast Anticancer Drug Screen. Data for the rad50 strain (AID 155);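 note: 0% = growth of vehicle-only cultures of the same strain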; details: S. cerevisiae rad50 strain growth inhibition; at 50.0 µM; active compounds read high
About 79,000 compounds went through this panel and 15% of them were active in at least one assay; those are over-represented in the sample as a whole.
REPORTED METRIC: growth inhibition (%)
All answers are understood in %, so give the number only.

Solved cases (4 shown):
INSERT INTO assay_data (molecule, observed_measurement) VALUES
  ('Brc1cccc[n+]1Cc1cc2ccccc2c2ccccc12', 97.2),
  ('CC(C)=CC[P+](CCCCCC[P+](CC=C(C)C)(c1ccccc1)c1ccccc1)(c1ccccc1)c1ccccc1', 31.6),
  ('O=C(O)Cc1ccc2c3c(cccc13)CC2', 88.1),
  ('CC(C)CC(NC(=O)SCc1ccccc1)C(=O)O (stereo not given)', 3.35);

// next item, growth inhibition requested
Please report the recorded growth inhibition for `N=c1scc(-c2ccccc2)n1/N=C/c1cccnc1` . 96.6

---

test: NCI Yeast Anticancer Drug Screen. Data for the mlh1 rad18 strain (AID 175); settings: S. cerevisiae mlh1 rad18 strain growth inhibition; at 50.0 µM; active compounds read high
About 79,000 compounds went through this panel and 15% of them were active in at least one assay; those are over-represented in the sample as a whole.
The threshold is inclusive: growth inhibition of exactly 90% counts as T; values below receive F.

INSERT INTO measurements (mol, cat) VALUES
  ('CCN(CC)C(=S)N/N=C(/c1ccccc1)c1ccccn1', 'F');

Decide: is the reported value of growth inhibition for `c1ccc(-c2ccc(-c3ccc(C4=NCCN4)cc3)o2)cc1` equal to or greater than 90%? T

Check the entry `CCCNC(=O)c1cc2ccccc2cc1C(=O)OC` : does growth inhibition equal or exceed 90%? F

Would you say `Cc1ccc(O)c(-c2cscn2)c1` shows growth inhibition at minimum 90%? F

Say whether `O=C1C=CC(=O)C(c2ccccc2)=C1` shows growth inhibition of 90% or more. T

Reported growth inhibition at or above 90%? `O=[N+]([O-])c1cc(F)c(Sc2cc(Br)c([N+](=O)[O-])cc2F)cc1Br` F

Assess whether reported growth inhibition for `C1=c2ccccc2=C2C(=C(c3ccccc3)C(c3ccccc3)=NN2c2ccccc2)S1` sits at 90% or higher. F
